Observed pIC50, system UniProtKB Q9Q6P4.
Sequence (Q9Q6P4 1424-1470): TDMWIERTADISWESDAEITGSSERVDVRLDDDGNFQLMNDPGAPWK
Sequence (Q9Q6P4 1506-1675): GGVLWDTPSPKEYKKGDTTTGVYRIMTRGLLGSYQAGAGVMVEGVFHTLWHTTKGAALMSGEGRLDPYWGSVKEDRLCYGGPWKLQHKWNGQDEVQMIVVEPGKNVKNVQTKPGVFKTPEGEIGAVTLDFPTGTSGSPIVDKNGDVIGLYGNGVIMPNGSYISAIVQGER
pIC50: −log10 of the molar value.

The recorded pIC50 with UniProtKB Q9Q6P4 for "NCc1ccc(-c2ncc(OCC3CCNCC3)nc2-c2ccc(-c3ccncc3)cc2)cc1" was < 4.30

Value (pIC50, UniProtKB Q9Q6P4) for record "Brc1ccc(-c2ncc(OCC3CCNCC3)nc2-c2ccc(Br)cc2)cc1" = < 4.30

Entry "NCc1ccc(-c2ncc(OCC3CCNCC3)nc2-c2ccc(-c3cn[nH]c3)cc2)cc1" : pIC50 on UniProtKB Q9Q6P4 = 6.92

Simply: "NCc1ccc(-c2cc(CNCC3CCNCC3)sc2-c2ccc(CN)cc2)cc1" , UniProtKB Q9Q6P4, pIC50 = < 4.30

Note to self: pIC50 of "NCc1ccc(-c2ncc(OCC3CCNCC3)nc2-c2ccc(Oc3ccccc3)cc2)cc1" with UniProtKB Q9Q6P4 was < 4.30

---

# SYSTEM TESTED: DV2pro (protease of dengue serotype-2) (Dengue virus type 2, UniProt P29990)
# Sequence (P29990 1476-1645): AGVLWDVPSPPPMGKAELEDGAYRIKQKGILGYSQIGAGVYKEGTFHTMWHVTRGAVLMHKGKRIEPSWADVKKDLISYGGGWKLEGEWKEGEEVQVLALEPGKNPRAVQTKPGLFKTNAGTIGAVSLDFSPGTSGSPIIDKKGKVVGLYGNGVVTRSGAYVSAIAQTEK
# Sequence (P29990 1394-1440): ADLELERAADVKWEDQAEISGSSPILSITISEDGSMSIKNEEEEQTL
PARAMETER MEASURED: IC50

Bench note, DV2pro (protease of dengue serotype-2) (Dengue virus type 2, UniProt P29990): entry NCc1ccc(-c2cc(CNCC3CCNCC3)sc2-c2ccc(CN)cc2)cc1 [Compound 20] , its IC50 = > 50 µM
